Test system: MOLM14 D835Y cells
experiment-description: MOLM14 D835Y cell viability (Cell Titer Glo)
Type: cell-based
measurement-conditions: Homo sapiens, MOLM-14, Table 16, 48 h
experimental-readout: IC50 (nM)

Answered cases to consult:
* COc1cn2ncc(-c3nc(N[C@@H]4CCCNC4)c(C#N)cc3F)c2nc1C(C)(C)O | 16
* COc1cn2ncc(-c3cccc(N[C@@H]4CCCNC4)n3)c2nc1C1CC1 | 41
* COc1cn2ncc(-c3ccc(F)c(N[C@@H]4CCCNC4)n3)c2nc1C1CC1 | 20
* COc1cn2ncc(-c3nc(N[C@@H]4CCCNC4)c(F)cc3F)c2nc1C(C)(C)O | 13
* COc1cn2ncc(-c3cccc(N[C@H]4CNCC[C@@H]4F)n3)c2nc1C1CC1 | 46

1. COc1cn2ncc(-c3nc(N[C@@H]4CCCNC4)c(F)cc3F)c2nc1C1CC1
2. COc1cn2ncc(-c3nc(N[C@H]4CNCC[C@@H]4F)c(F)cc3F)c2nc1C1CC1
Query block: Endpoint returns whichever of 1 and 2 has the numerically higher IC50. Give the chosen item's label as your response.
Result block: 1
